SYSTEM_UNDER_TEST: Human recombinant thrombin (Homo sapiens)
Construct: Human recombinant thrombin was prepared in house
EXPERIMENT_SUMMARY: Thrombin (FIIa) chromogenic assay
CONDITION_INFO: converted from IC50
MEASURED_PARAMETER: Ki (µM)
Form entry: value (µM) — number only.

Query: Report Ki for COC(=O)Nc1ccc(-c2nc(CNC(=O)CCc3cc(Cl)ccc3-n3cnnn3)[nH]c2Cl)cc1 [Compound 11, reference compound] please.
Reply: 31

---

SYSTEM_UNDER_TEST: Recombinant human trypsin (Homo sapiens, UniProt P07477)
EXPERIMENT_SUMMARY: biochemical
CONDITION_INFO: read-out: Trypsin % inhibition at 99 μM
inhibition at 99 µM listing for selected compounds.
Form entry: value (%) — number only.

// worked examples, inhibition at 99 µM included
Query: Report inhibition at 99 µM for COC(=O)Nc1ccc(-c2nc(CNC(=O)CCc3cc(Cl)ccc3-n3cnnn3)[nH]c2Cl)cc1 [Compound 11, reference compound] please.
Reply: 4

Query: Report inhibition at 99 µM for O=c1ccc2cc(Cl)ccc2[nH]1 [Compound 5] please.
Reply: 0

Query: Report inhibition at 99 µM for CC(=O)N[C@@H](Cc1ccccc1)C(=O)NCc1cc(=O)[nH]c2ccc(Cl)cc12 [Compound 14] please.
Reply: 18

Could you now consider this next compound?
Query: Report inhibition at 99 µM for O=C1CC(CC(=O)NC(Cc2ccccc2)C(=O)Nc2ccc(-c3nnn[nH]3)cc2)c2cc(Cl)ccc2N1 (stereo not shown) [Compound 20] please.
Reply: 7

---

System: rat hepatocytes
EXPERIMENT_SUMMARY: Rat hepatocyte metabolic stability assay
Type: in vitro ADME
Rat CLint listing for selected compounds.
Form entry: value (μL/min/ 1·10^6 cells) — number only.

// worked examples, Rat CLint included
Query: Report Rat CLint for CN(Cc1cc(=O)[nH]c2ccc(Cl)cc12)C(=O)[C@H](Cc1ccccc1)N(C)C(=O)c1ccc2[nH]c(=O)cc(O)c2c1 please.
Reply: 23

Query: Report Rat CLint for Cc1c(-c2ccccc2)n[nH]c1C(=O)N(C)Cc1cc(=O)[nH]c2ccc(Cl)cc12 please.
Reply: 21

Query: Report Rat CLint for CN(Cc1cc(=O)[nH]c2ccc(Cl)cc12)C(=O)[C@H](Cc1ccccc1)NC(=O)c1ccc2[nH]c(=O)cc(O)c2c1 please.
Reply: 10

Next:
Query: Report Rat CLint for Cc1c(-c2ccccc2)n[nH]c1C(=O)N(C)Cc1cc(=O)[nH]c2ccccc12 please.
Reply: 58

Query: Report Rat CLint for O=C(N[C@@H](Cc1ccccc1)C(=O)NCc1cc(=O)[nH]c2ccc(Cl)cc12)c1ccc2[nH]c(=O)cc(O)c2c1 please.
Reply: 22

---

EXPERIMENT_SUMMARY: Experimental pKa
MEASURED_PARAMETER: pKa

Query: Report pKa for Nc1ccc2c(CNC(=O)[C@H](Cc3ccccc3)NC(=O)c3ccc4[nH]c(=O)cc(O)c4c3)cccc2n1 please.
Reply: 7.1

---

chromatographic logD listing for selected molecules.
EXPERIMENT_SUMMARY: Chromatographic determination of lipophilicity
Assay type: physicochemical
CONDITION_INFO: reversed-phase UPLC, Waters BEH C18 stationary phase, pH 7.4; measured by liquid chromatography, pH7.4
// print number alone

Query: Report chromatographic logD for O=C(N[C@@H](Cc1ccccc1)C(=O)NCc1cc(=O)[nH]c2ccc(Cl)cc12)c1ccc2[nH]c(=O)cc(O)c2c1 [Compound 13] please.
Reply: 0.87

Next:
Query: Report chromatographic logD for CN(Cc1cc(=O)[nH]c2ccc(Cl)cc12)C(=O)[C@H](Cc1ccccc1)N(C)C(=O)c1ccc2[nH]c(=O)cc(O)c2c1 [Compound 26] please.
Reply: 1.4

Query: Report chromatographic logD for CN(Cc1cc(=O)[nH]c2ccc(Cl)cc12)C(=O)[C@H](Cc1ccccc1)NC(=O)c1ccc2[nH]c(=O)cc(O)c2c1 [Compound 25] please.
Reply: 1.3

Query: Report chromatographic logD for Cc1c(-c2ccccc2)n[nH]c1C(=O)N(C)Cc1cc(=O)[nH]c2ccc(Cl)cc12 [Compound 28] please.
Reply: 2.7
